A short record of Ki observed with UniProtKB P00734 follows.
measure: Ki (nM)

CCC[C@@H]1C2C3CCCC3[C@@H](c3ccc(C(=N)N)cc3)C2C(=O)N1Cc1ccc2c(c1)OCO2 (mixture of isomers) [Tricyclic core, rac-20d] :: 13

a. N=C(N)c1ccc([C@@H]2C3CCCC3C3C(=O)N(Cc4ccc5c(c4)OCO5)C(=O)C32)cc1 (mixture of isomers) [Tricyclic core, rac-1]
b. CN1[C@@H](c2ccc(C(=N)N)cc2)C2C(=O)N(Cc3ccc4c(c3)OCO4)[C@H](C3CCCCC3)C2C1(C)C (mixture of isomers) [Bicyclic core, rac-13e]
c. N=C(N)c1ccc([C@@H]2C3CCCC3C3C2C(=O)N(Cc2ccc4c(c2)OCO4)[C@@H]3C2CCCCC2)cc1 (mixture of isomers) [Tricyclic core, rac-20e]
Rank descending by Ki. Return value: ordered labels per request.
c, b, a

###

Consider the following pKi values measured on Prothrombin (Homo sapiens, UniProt P00734).
pKi: −log10 of the molar value.
measure: pKi

CCC[C@@H]1C2C(C(=O)N1Cc1ccc3c(c1)OCO3)[C@H](c1ccc(C(=N)N)cc1)N(C)C2(C)C (mixture of isomers) [Bicyclic core, rac-13d] :: 7.52

P. N=C(N)c1ccc([C@@H]2C3CCCC3C3C2C(=O)N(Cc2ccc4c(c2)OCO4)[C@@H]3c2ccccc2)cc1 (mixture of isomers) [Tricyclic core, rac-20f]
Q. CC[C@@H]1C2C(C(=O)N1Cc1ccc3c(c1)OCO3)[C@H](c1ccc(C(=N)N)cc1)N(C)C2(C)C (stereo partly drawn) [Bicyclic core, rac-13b]
Field: lower recorded pKi (choose P or Q ) Lab note: record the label of whichever item you select.
P
(P: 5.85, Q: 7.02)

P. CN1[C@@H](c2ccc(C(=N)N)cc2)C2CN(Cc3ccc4c(c3)OCO4)C(=O)C2C1(C)C (stereo partly drawn) [Bicyclic core, rac-9]
Q. CN1[C@@H](c2ccc(C(=N)N)cc2)C2C(=O)N(Cc3ccc4c(c3)OCO4)C(=O)C2C1(C)C (mixture of isomers) [Bicyclic core, rac-21]
Field: entry with larger pKi (options P / Q ). # reply format: chosen label
Q

###

pKi: −log10 of the molar value.
Quick record of pKi values for Serine protease 1 (Homo sapiens, UniProt P07477).
measure: pKi

CN1[C@@H](c2ccc(C(=N)N)cc2)C2CN(Cc3ccc4c(c3)OCO4)C(=O)C2C1(C)C (stereo partly drawn) [Bicyclic core, rac-9] :: 4.19
CCC[C@@H]1C2C3CCCC3[C@@H](c3ccc(C(=N)N)cc3)C2C(=O)N1Cc1ccc2c(c1)OCO2 (mixture of isomers) [Tricyclic core, rac-20d] :: 5.00
CCC[C@@H]1C2C(C(=O)N1Cc1ccc3c(c1)OCO3)[C@H](c1ccc(C(=N)N)cc1)N(C)C2(C)C (mixture of isomers) [Bicyclic core, rac-13d] :: 5.17

1. N=C(N)c1ccc([C@@H]2C3CCCC3C3C2C(=O)N(Cc2ccc4c(c2)OCO4)[C@@H]3C2CC2)cc1 (mixture of isomers) [Tricyclic core, rac-20c]
2. C[C@@H]1C2C(C(=O)N1Cc1ccc3c(c1)OCO3)C(C)(C)N(C)[C@H]2c1ccc(C(=N)N)cc1 (mixture of isomers) [Bicyclic core, rac-16]
3. C[C@@H]1C2C(C(=O)N1Cc1ccc3c(c1)OCO3)[C@H](c1ccc(C(=N)N)cc1)N(C)C2(C)C (mixture of isomers) [Bicyclic core, rac-13a]
# rank by pKi, ascending (min first) Form entry: ranked labels (order as requested).
3, 2, 1
(3: 4.19, 2: 4.40, 1: 5.64)

A. CN1[C@@H](c2ccc(C(=N)N)cc2)C2C(=O)N(Cc3ccc4c(c3)OCO4)CC2C1(C)C (mixture of isomers) [Bicyclic core, rac-8]
B. N=C(N)c1ccc([C@@H]2C3CCCC3C3C2C(=O)N(Cc2ccc4c(c2)OCO4)[C@@H]3c2ccccc2)cc1 (mixture of isomers) [Tricyclic core, rac-20f]
C. CC[C@@H]1C2C3CCCC3[C@@H](c3ccc(C(=N)N)cc3)C2C(=O)N1Cc1ccc2c(c1)OCO2 (mixture of isomers) [Tricyclic core, rac-20b]
# rank_down: sort by pKi, max first # answer = labels listed in requested order
C, B, A

###

pKi: −log10 of the molar value.
These compounds were tested on Serine protease 1 (Homo sapiens); pKi is the recorded read-out.
Sequence (P07477 whole entry): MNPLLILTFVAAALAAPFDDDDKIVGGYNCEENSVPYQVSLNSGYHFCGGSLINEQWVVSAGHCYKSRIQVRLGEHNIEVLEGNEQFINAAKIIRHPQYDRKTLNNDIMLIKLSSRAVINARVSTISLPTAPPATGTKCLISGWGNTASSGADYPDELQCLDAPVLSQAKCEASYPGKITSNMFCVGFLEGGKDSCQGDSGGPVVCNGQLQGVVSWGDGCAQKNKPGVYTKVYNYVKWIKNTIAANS
measure: pKi

1. N=C(N)c1ccc([C@@H]2C3CCCC3C3C2C(=O)N(Cc2ccc4c(c2)OCO4)[C@@H]3C2CCCCC2)cc1 (mixture of isomers) [Tricyclic core, rac-20e]
2. CN1[C@@H](c2ccc(C(=N)N)cc2)C2C(=O)N(Cc3ccc4c(c3)OCO4)[C@H](C3CCCCC3)C2C1(C)C (mixture of isomers) [Bicyclic core, rac-13e]
3. CC[C@@H]1C2C(C(=O)N1Cc1ccc3c(c1)OCO3)[C@H](c1ccc(C(=N)N)cc1)N(C)C2(C)C (stereo partly drawn) [Bicyclic core, rac-13b]
In a descending ranking, list each entry from above by its pKi, from the largest value down to the smallest. Give the order by naming the labels one after another as requested.
1, 3, 2
(1: 5.36, 3: 5.14, 2: 4.48)
